- Test system: MDA-MB-231
- Assay explanation: NCI tumour cell line growth inhibition, 48 h
Activity calls are given as the source filed them. Cut-off read from the data, not from the text of the source: active = GI50 up to about 1.1 µM and inactive = higher.
Allowed answers: TRUE for active, FALSE for inactive

Solved cases below.
1) CN(C)c1nncc2[nH]cnc12 : FALSE
2) O=C1c2ccccc2-c2ccc(NC(=O)C3CCCCC3C(=O)O)cc21 (stereo not given) : FALSE
3) CN1C(=O)C2(Cc3cn(C45CC67SSC(CO)(C(=O)N6C4Nc4ccccc45)N(C)C7=O)c4ccccc34)SSC1(CO)C(=O)N2C (stereo not given) : TRUE

Task item: Status in this test for `Cc1nc2cccc(F)c2c(=O)n1-c1nnc(C2CC2)s1` ?
Reply: FALSE

Task item: Status in this test for `CCN(CC)CCOC(=O)CCN1CC2CCC(CC2)C1` ?
Reply: FALSE

----------
- Test system: HOP-62
- Assay explanation: NCI tumour cell line growth inhibition, 48 h
Activity calls are given as the source filed them. Rule as the data show it: active = GI50 up to about 1.1 µM and inactive = higher.
Allowed answers: active, inactive

Solved cases below.
1. CCOC(=O)/C(=C\c1ccc(N(CCC#N)CCC#N)cc1C)NC(=O)/C=C/c1ccccc1 : inactive
2. C/C(=N\Nc1nc2cc(Cl)ccc2s1)c1ccccn1 : active

Now for a further molecule.
Task item: Status in this test for `O=C(O)CCCN1CCCCC1` ?
Reply: inactive

----------
GI50 overview
- Test system: Hs-578T
- Assay explanation: NCI tumour cell line growth inhibition, 48 h
Active and inactive are the calls of the source. Rule as the data show it: active = GI50 up to about 1.1 µM and inactive = higher.

A selection of reference data follows.
1. CC1CC(=O)Nc2ccccc2N1C(=O)C1CC1 (stereo unspecified) : > 100 µM (inactive)
2. O=C(Sc1c(-c2ccccc2)c(=O)n(-c2ccccc2)c(=S)n1-c1ccccc1)c1cccs1 : > 100 µM (inactive)
3. CCCCP(CCCC)(CCCC)=C(C(=O)OC)C(C(=O)OC)=C1SC(C(=O)OC)=C(C(=O)OC)S1 : 18.5 µM (inactive)
4. O=C(O)CCCN1CCCCC1 : > 100 µM (inactive)
5. O=C1C(CN2CCCC2)CCCC1CN1CCCC1 (stereo unspecified) : 28 µM (inactive)

Continue with the next molecule.
Looking up `Oc1cc(-c2ccc(F)cc2)nc2ncc(Cl)cc12` , I found its GI50 recorded as 19.9 µM (inactive)

----------
- Tested on: A498
- Assay explanation: NCI tumour cell line growth inhibition, 48 h
The source made the active and inactive calls. Rule as the data show it: active = GI50 up to about 1.1 µM and inactive = higher. Where a SMILES comes first, the peptide text is derived from it. [ ]: non-standard residue; d: D form. The star is where a group is joined. ξ: configuration not given here. Propanoyl(3-(4-MeO-Ph)) = COc1ccc(CCC(=O)*)cc1; Thr(3ξ) = CC(O)[C@H](N)C(=O)O; dNMeL = CN[C@H](CC(C)C)C(=O)O; OBn = c1ccc(CO*)cc1; ξLac = CC(O)C(=O)O
Allowed answers: active, inactive

1) Fc1ccc2c(c1)cc1ccc3cccc4ccc2c1c34 : inactive
2) O=P1(N(CCCl)CCCl)Oc2c(Cl)cc(Cl)c(Cl)c2Cc2c(Cl)c(Cl)cc(Cl)c2O1 : inactive
3) O=c1c(O)c(-c2cc(O)c(O)cc2O)oc2cc(O)c(C3OC(CO)C(O)C(O)C3O)c(O)c12 (centres undefined) : inactive

Task item: Status in this test for `Cn1c(=S)[nH]c(N)c(Cc2ccccc2)c1=O` ?
Reply: inactive

Task item: Status in this test for COc1ccc(CCC(=O)OC(C)[C@H](NC(=O)[C@@H](CC(C)C)N(C)C(=O)[C@@H]2CCCN2C(=O)C(C)O)C(=O)OCc2ccccc2)cc1 (some centres undefined) (H-[ξLac]P[dNMeL][Thr(3ξ)](Propanoyl(3-(4-MeO-Ph)))-OBn) ?
Reply: inactive

Task item: Status in this test for `O=C(O)c1cc(/N=N/c2ccc([As](=O)(O)O)cc2)ccc1O` ?
Reply: inactive

Task item: Status in this test for `CCOC(=O)NC(=O)c1cn(CCN2CCN(C(=O)CNC(=O)CNC(=O)Cn3cc(C(=O)NC(=O)OCC)c(=O)[nH]c3=O)CC2)c(=O)[nH]c1=O` ?
Reply: inactive

Task item: Status in this test for `COc1cc2c(cc1OCCCN1C(=O)c3cccc4cccc(c34)C1=O)N=C[C@@H]1CCCN1C2=O` ?
Reply: inactive

Task item: Status in this test for O=C1C(CN2CCCC2)CCCC1CN1CCCC1 (centres undefined) ?
Reply: inactive

Task item: Status in this test for `COc1ccc(Cn2nc(OCc3ccccc3)c3cc([N+](=O)[O-])ccc32)cc1` ?
Reply: inactive

Task item: Status in this test for `CCOc1ccc(/N=C/C=C(\Cl)c2ccc3ccccc3c2)cc1` ?
Reply: inactive

Task item: Status in this test for `Nn1c(CCCCCCCCc2nnc(COc3ccc4ccccc4c3O)n2N)nnc1COc1ccc2ccccc2c1O` ?
Reply: inactive

The origin of these recorded values is ChEMBL document CHEMBL1201862.
